Biological target: Mannose-6-phosphate isomerase (Homo sapiens)
Experiment: inhibitors of human PMI, primary screen, biochemical, fluorescence intensity, coupled assay (AID 1209);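 also: plate controls were DMSO vehicle for no effect and wells lacking substrate for full effect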
Conditions: purified PMI enzyme, at 20 µM, stronger effect = higher value
About 810 (0.43%) of roughly 190,000 compounds were called active. The list comes from a sample in which actives are over-represented; it also holds close analogues and randomly drawn compounds.
inhibition by entry:
measured.property: inhibition (%)

[[record]]
compound = "COC(=O)c1ccc(C(=O)OC)c(NC(=O)COC(=O)c2ccc(OC)c(OC)c2OC)c1"
system_name = "Mannose-6-phosphate isomerase (Homo sapiens)"
output_unit = "%"
assay_value = 7.2

[[record]]
compound = "COC(=O)c1ccc2nc(C)c(C)nc2c1"
system_name = "Mannose-6-phosphate isomerase (Homo sapiens)"
output_unit = "%"
assay_value = -5.7

[[record]]
compound = "COc1ccc(NS(=O)(=O)c2ccc(OCC(=O)N3CCOCC3)cc2)cc1"
system_name = "Mannose-6-phosphate isomerase (Homo sapiens)"
output_unit = "%"
assay_value = 10.6

[[record]]
compound = "COc1ccc(NC(=O)COC(=O)C(CC(C)C)N2C(=O)C3CC=CCC3C2=O)cc1Cl (stereo not given)"
system_name = "Mannose-6-phosphate isomerase (Homo sapiens)"
output_unit = "%"
assay_value = 16.5

[[record]]
compound = "Cc1nn(Cc2ccc(F)cc2)c(C)c1NC(=O)c1cc2ncc(Br)cn2n1"
system_name = "Mannose-6-phosphate isomerase (Homo sapiens)"
output_unit = "%"
assay_value = 6.4

[[record]]
compound = "COC(=O)c1ccc2c(c1)C(C)(C)C(/C=C/c1ccc(O)cc1)=[N+]2C"
system_name = "Mannose-6-phosphate isomerase (Homo sapiens)"
output_unit = "%"
assay_value = 72

[[record]]
compound = "Cc1ccc(S(=O)(=O)N2CCCC(C(=O)NCc3cccnc3)C2)cc1Cl (stereo not given)"
system_name = "Mannose-6-phosphate isomerase (Homo sapiens)"
output_unit = "%"
assay_value = 12.2

[[record]]
compound = "COC(=O)c1ccc2c(c1)C(C)(C)C(/C=C/c1ccc(OC)c(OC)c1OC)=[N+]2C"
system_name = "Mannose-6-phosphate isomerase (Homo sapiens)"
output_unit = "%"
assay_value = 91.8

[[record]]
compound = "Cc1ccc(C)c(C(C)NC(=O)c2ccccc2Br)c1 (stereo not given)"
system_name = "Mannose-6-phosphate isomerase (Homo sapiens)"
output_unit = "%"
assay_value = -5.5

[[record]]
compound = "COC(=O)c1ccc2c(c1)C(C)(C)C(/C=C/c1ccccc1O)=[N+]2C"
system_name = "Mannose-6-phosphate isomerase (Homo sapiens)"
output_unit = "%"
assay_value = 39.9


====

Biological target: Mannose-6-phosphate isomerase (Homo sapiens) (UniProt P34949)
Sequence (P34949 whole entry, looked up): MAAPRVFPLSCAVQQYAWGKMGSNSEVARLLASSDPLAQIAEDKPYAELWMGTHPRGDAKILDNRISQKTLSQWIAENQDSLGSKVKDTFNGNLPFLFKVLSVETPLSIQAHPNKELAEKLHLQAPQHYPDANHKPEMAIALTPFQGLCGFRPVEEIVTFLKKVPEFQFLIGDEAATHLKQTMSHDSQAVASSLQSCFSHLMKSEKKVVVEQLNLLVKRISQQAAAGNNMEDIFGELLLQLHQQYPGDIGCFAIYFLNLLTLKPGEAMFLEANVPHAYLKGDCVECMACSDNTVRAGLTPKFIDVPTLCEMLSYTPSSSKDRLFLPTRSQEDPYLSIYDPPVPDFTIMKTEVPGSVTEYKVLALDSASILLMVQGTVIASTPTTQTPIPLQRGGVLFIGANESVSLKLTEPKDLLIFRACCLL
Experiment: inhibitors of human PMI, primary screen, biochemical, fluorescence intensity, coupled assay (AID 1209);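 also: plate controls were DMSO vehicle for no effect and wells lacking substrate for full effect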
Settings: purified PMI enzyme, at 20 µM, stronger effect = higher value
Among all 190,000 compounds or so, about 810 (0.43%) were called active. The full list was thinned out, with actives kept by preference.
measured.property: inhibition (%)

[[record]]
molecule = "COc1cc(OC)cc(-n2nnnc2SCC(=O)Nc2ccc(C(C)=O)cc2)c1"
assay_value = 5.1

[[record]]
molecule = "COC(=O)c1ccc(Sc2ccc(F)cc2)c(N)c1"
assay_value = 11.4

[[record]]
molecule = "CCN(CC(=O)NCc1ccc(F)cc1)Cc1cc(=O)n2ccsc2n1"
assay_value = -30.2

[[record]]
molecule = "O=C(Nn1cnc2ccccc2c1=O)c1cccc(Cl)c1"
assay_value = 3

[[record]]
molecule = "COC(=O)c1ccc(Sc2ccc(C)cc2)c(N)c1"
assay_value = 55

[[record]]
molecule = "Cc1cc(C(=O)NNC(=S)Nc2ccccc2C)cs1"
assay_value = 70.7

[[record]]
molecule = "CCOC(=O)N1CCC(NC(=O)CCC(=O)N2CC(C)Oc3ccc(Cl)cc32)CC1 (stereo not drawn)"
assay_value = 19.2

[[record]]
molecule = "COc1ccc(OC)c(C2CC(=O)N3CN(c4cccc(Cl)c4C)CSC3=C2C#N)c1 (stereo not drawn)"
assay_value = 46.9

[[record]]
molecule = "CCN(CC)S(=O)(=O)c1ccc(C(=O)NCc2n[nH]c(=S)n2Cc2ccccc2)cc1"
assay_value = 10.2

[[record]]
molecule = "O=C(C1CCCC1)N1CCC(CO)(Cc2ccccc2Cl)CC1"
assay_value = 0.9

[[record]]
molecule = "O=C(O)c1nn(-c2ccccc2)c(-c2ccccc2)c1C(=O)c1ccccc1"
assay_value = -12.5

[[record]]
molecule = "COc1cc(OC)c(C2CC(=O)N3CN(c4ccccc4C)CSC3=C2C#N)cc1OC (stereo not drawn)"
assay_value = 30.5

[[record]]
molecule = "Cc1ccc(CNC(=O)Cc2csc(Nc3nc(=S)[nH]c4ccccc34)n2)cc1"
assay_value = -1.8

[[record]]
molecule = "O=C(NN1CCN(Cc2ccccc2Cl)CC1)c1ccc(Br)cc1"
assay_value = -9.1

[[record]]
molecule = "COc1cccc(C2CC(=O)N3CN(c4ccccc4F)CSC3=C2C#N)c1 (stereo not drawn)"
assay_value = 16

[[record]]
molecule = "COc1ccc(CCNC(=O)c2nnn(CC(=O)Nc3cccc(F)c3)c2N)cc1OC"
assay_value = -0.3

[[record]]
molecule = "COc1ccc(N2CSC3=C(C#N)C(c4cc(OC)ccc4OC)CC(=O)N3C2)c(OC)c1 (stereo not drawn)"
assay_value = 53.4

[[record]]
molecule = "CCc1cc(C(=O)NNC(=S)Nc2ccccc2C)cs1"
assay_value = -8.6

[[record]]
molecule = "O=C(Cc1ccc(Nc2nc(=S)[nH]c3ccccc23)cc1)NC1CCCCC1"
assay_value = -5.3

[[record]]
molecule = "CCN(CC)C(=S)SSC(=S)N(CC)CC"
assay_value = -2.4

[[record]]
molecule = "C=CCSc1nc2sc3c(c2c(=O)n1CC)CCc1ccccc1-3"
assay_value = 71.8

[[record]]
molecule = "O=C(CC1CCCCC1)OCn1nnc2ccccc2c1=O"
assay_value = -0.7

[[record]]
molecule = "C=CCSc1nc2sc3c(c2c(=O)n1CC=C)CCc1ccccc1-3"
assay_value = 10.5

